# System: Human retinal pigmented epithelium cells (RPE)
# ASSAY_NOTES: NO bioassay: DAF-FM DA fluorescence as indicator of NO in RPE cells
# Assay type: cell-based
# MEASUREMENT_PARAMETERS: Table 3; DAF-FM DA NO fluorescence change vs control; WT RPE cells in PBS with 5 mM Ca2+ + Mg2+ + 8 mM pyruvate; agent 300 ppm unless stated
Below, each of the molecules is paired with its reported [(E − C)/C] × 100 (N = 3, A.U. %) value.
Provide the reading as a plain figure in %.

Past entries and their recorded results:
                            smi                      endpoint_name  uom  measured_number
0                        [Pr+3]  [(E − C)/C] × 100 (N = 3, A.U. %)    %              −91
1                        [Ce+3]  [(E − C)/C] × 100 (N = 3, A.U. %)    %              −96
2  O=C1c2c(O)cccc2Cc2cccc(O)c21  [(E − C)/C] × 100 (N = 3, A.U. %)    %              −69

Next molecule, [(E − C)/C] × 100 (N = 3, A.U. %) to be filled in.
The recorded [(E − C)/C] × 100 (N = 3, A.U. %) for [Fe+3] is −93
